In this section we review reported PBM E-score values for a set of sequences.
# STUDY TARGET: Cst6 (UniProt P40535)
# Sequence (P40535 whole entry): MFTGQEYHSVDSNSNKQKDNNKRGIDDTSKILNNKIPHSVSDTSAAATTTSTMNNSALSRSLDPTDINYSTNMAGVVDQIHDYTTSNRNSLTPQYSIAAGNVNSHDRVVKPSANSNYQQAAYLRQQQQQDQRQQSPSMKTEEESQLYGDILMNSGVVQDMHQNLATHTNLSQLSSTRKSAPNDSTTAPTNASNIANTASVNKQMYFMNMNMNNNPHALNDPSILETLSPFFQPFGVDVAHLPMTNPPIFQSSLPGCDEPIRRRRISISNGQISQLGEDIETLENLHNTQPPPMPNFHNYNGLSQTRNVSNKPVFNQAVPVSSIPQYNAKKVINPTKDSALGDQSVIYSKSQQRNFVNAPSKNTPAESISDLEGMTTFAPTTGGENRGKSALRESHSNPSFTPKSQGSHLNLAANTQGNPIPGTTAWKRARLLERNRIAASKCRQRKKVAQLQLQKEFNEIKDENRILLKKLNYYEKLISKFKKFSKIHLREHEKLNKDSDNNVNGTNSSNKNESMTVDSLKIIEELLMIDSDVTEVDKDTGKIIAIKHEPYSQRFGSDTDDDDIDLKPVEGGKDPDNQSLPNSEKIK
# TEST: PBM E-score (8-mer binding enrichment) (E-score (-0.5 to 0.5)); higher = stronger / more preferred TF binding
# CONDITION SUMMARY: protein concentration: 200 nM; construct: GST-DNA-binding domain
Over roughly 33,000 sequences, “E-score (-0.5 to 0.5)” has its median near -0.016; the highest 2% begin near 0.31. Only a selection was taken, and the highest values are over-represented in it overall.
PARAMETER MEASURED: PBM E-score

AGCGGCAC    0.123
ACGTCGAA    0.112
AAGGTAGC    -0.198
GCGTCAAA    0.151
GCGTCAAC    0.335
AACGGCGC    0.251
AGGTCAAC    -0.0368
CGCGCGGC    0.378
ACGTCAAA    0.389
ACGTCGAG    -0.115
AGTTGACC    -0.114
ATGTGACA    0.151
GCTGGCAA    -0.106
ACGTCGAT    0.316
CACGGCGA    0.21
ACGTCAAC    0.484
GCTCAATA    0.0653
CGACGGGC    0.0567
CCGTCAAC    0.0147
CGCGGCAA    0.134
TTCACAAA    0.0753
CATTGCCC    -0.241
